molecular target: human PPAR alpha (Homo sapiens, UniProt Q07869); test: GAL4-PPARα ligand binding domain luciferase reporter transactivation assay in transiently transfected U2-OS cells; settings: about 24 hours exposure, concentration giving 50% of maximal activation by reference compound ETYA
Sequence (Q07869 239-466 limits assumed): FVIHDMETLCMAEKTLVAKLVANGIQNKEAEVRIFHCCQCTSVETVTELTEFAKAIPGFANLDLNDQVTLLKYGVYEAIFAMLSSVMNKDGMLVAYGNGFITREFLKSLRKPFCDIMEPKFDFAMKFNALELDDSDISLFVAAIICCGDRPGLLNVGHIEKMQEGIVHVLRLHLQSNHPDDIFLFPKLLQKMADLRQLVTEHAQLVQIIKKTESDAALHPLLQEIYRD

# SMILES REPRESENTATION, TARGET ENTITY, EC50, nM
measured = [
    ("CCN(Cc1ccc(Cl)cc1)C(=O)COc1ccc(CCSc2ccccc2C(=O)O)cc1", "human PPAR alpha (Homo sapiens, UniProt Q07869)", 499),
    ("CCN(Cc1ccc(C(F)(F)F)cc1)C(=O)COc1ccc(CCOc2ccccc2C(=O)O)cc1", "human PPAR alpha (Homo sapiens, UniProt Q07869)", 48),
]
